The following molecules have recorded pEC50 on Relaxin-3 receptor 2 (Homo sapiens, UniProt Q8TDU9).
Sequence (Q8TDU9 whole entry): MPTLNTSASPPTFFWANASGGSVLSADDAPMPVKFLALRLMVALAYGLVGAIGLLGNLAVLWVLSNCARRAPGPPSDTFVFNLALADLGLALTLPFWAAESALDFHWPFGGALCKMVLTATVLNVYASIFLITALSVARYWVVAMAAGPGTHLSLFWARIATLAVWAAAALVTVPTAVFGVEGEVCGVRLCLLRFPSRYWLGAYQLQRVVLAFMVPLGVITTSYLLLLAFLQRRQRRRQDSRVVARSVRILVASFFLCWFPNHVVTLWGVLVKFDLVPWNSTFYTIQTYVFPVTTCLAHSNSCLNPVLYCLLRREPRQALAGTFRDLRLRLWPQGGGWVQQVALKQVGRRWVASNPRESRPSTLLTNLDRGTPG
pEC50: −log10 of the molar value.

| Smiles record | pEC50 |
| --- | --- |
| CCc1cc(C#N)cc2c(/C=N/NC(=N)NCCc3cccnc3)c[nH]c12 | 9.05 |
| COC(=O)c1ccc(CCNC(=N)N/N=C/c2c[nH]c3c(C)cc(C#N)cc23)cc1 | 8.57 |
| COC(=O)c1ccc(CCNC(=N)N/N=C/c2c[nH]c3c(C)cc(OC)cc23)cc1 | 8.47 |
| CCc1cc(OC)cc2c(/C=N/NC(=N)NCCc3cccnc3)c[nH]c12 | 8.96 |
| CCc1cc(OC)cc2c(/C=N/NC(=N)NCCc3ccc(C#N)cc3)c[nH]c12 | 8.74 |
| CCc1cc(OC)cc2c(/C=N/NC(=N)NCCc3ccc(F)cc3)c[nH]c12 | 8.40 |
| CCc1cc(O)cc2c(/C=N/NC(=N)NCCc3ccc(Cl)cc3)c[nH]c12 | 9.10 |
